# assay-text: In vivo oral bioavailability assay in rats
# assay-setup: male, Sprague-Dawley, plasma; rat, oral administration 60 mg/kg
readout-name: Cmax
Quote the value and follow it with the unit of measurement.

What value of measured Cmax is listed for CO[C@H]1C[C@H]2OC[C@@]2(OC(C)=O)[C@H]2[C@H](OC(=O)c3ccccc3)[C@]34OC(=O)O[C@H]3[C@H](OC(=O)[C@H](O)[C@@H](NC(=O)OC(C)(C)C)c3ccccc3)C(C)=C([C@@H](OC(=O)N(C)C)C(=O)[C@]12C)C4(C)C [PCMI-08] ? 2120 ng/mL

---

# Tested on: A375 melanoma
# assay-text: MTT proliferation inhibition, A375
# Type: cell-based
# assay-setup: Homo sapiens, A-375, read-out: Proliferation inhibition rate, A375 Melanoma
readout-name: inhibition at 1 µM (%)
One number for each entry, in %.

[[record]]
structure_as_smiles = "CO[C@H]1C(=O)[C@]2(C)[C@@H](OC)C[C@H]3OC[C@@]3(OC(C)=O)[C@H]2[C@H](OC(=O)c2ccccc2)[C@]23OC(=O)O[C@H]2[C@H](OC(=O)[C@H](O)[C@@H](NC(=O)c2ccccc2)c2ccccc2)C(C)=C1C3(C)C"
value_units = "%"
assay_result = 89.8


Return reported inhibition at 1 µM values for all items listed beneath this line.
1. COC(=O)O[C@H]1C[C@H]2OC[C@@]2(OC(C)=O)[C@H]2[C@H](OC(=O)c3ccccc3)[C@]34OC(=O)O[C@H]3[C@H](OC(=O)[C@H](O)[C@H](CC(C)C)NC(=O)OC(C)(C)C)C(C)=C([C@@H](OC)C(=O)[C@]12C)C4(C)C
2. CO[C@H]1C(=O)[C@]2(C)[C@@H](OC(=O)N(C)C)C[C@H]3OC[C@@]3(OC(C)=O)[C@H]2[C@H](OC(=O)c2ccccc2)[C@]23OC(=O)O[C@H]2[C@H](OC(=O)[C@H](O)[C@@H](NC(=O)OC(C)(C)C)c2ccccn2)C(C)=C1C3(C)C
3. CO[C@H]1C(=O)[C@@]2(C)[C@H]([C@H](OC(=O)c3ccccc3)[C@]34OC(=O)O[C@H]3[C@H](OC(=O)[C@H](O)[C@@H](NC(=O)OC(C)(C)C)c3ccccc3)C(C)=C1C4(C)C)[C@]1(OC(C)=O)CO[C@@H]1C[C@@H]2O

[93.4, 97.9, 94.4]

---

# assay-text: Caco-2 cell monolayer membrane transport assay (Papp and recovery)
# Format: in vitro ADME
# assay-setup: human, Caco-2, Caco-2, A-B, Sample-01; read-out: Papp A-B, Sample-01
readout-name: Papp A→B (×10⁻⁶ cm/s)
Give bare numbers, in ×10⁻⁶ cm/s.

[[record]]
compound = "CO[C@H]1C[C@H]2OC[C@@]2(OC(C)=O)[C@H]2[C@H](OC(=O)c3ccccc3)[C@]34OC(=O)O[C@H]3[C@H](OC(=O)[C@H](O)[C@@H](NC(=O)OC(C)(C)C)c3ccccn3)C(C)=C([C@@H](OC(=O)N(C)C)C(=O)[C@]12C)C4(C)C [PCMI-09]"
assay_result = 5.78

[[record]]
compound = "CO[C@H]1C(=O)[C@]2(C)[C@@H](OC)C[C@H]3OC[C@@]3(OC(C)=O)[C@H]2[C@H](OC(=O)c2ccccc2)[C@]23OC(=O)O[C@H]2[C@H](OC(=O)[C@H](O)[C@@H](NC(=O)OC(C)(C)C)c2ccccn2)C(C)=C1C3(C)C [PCMI-04]"
assay_result = 4.46

[[record]]
compound = "CO[C@H]1C(=O)[C@]2(C)[C@@H](OC)C[C@H]3OC[C@@]3(OC(C)=O)[C@H]2[C@H](OC(=O)c2ccccc2)[C@]23OC(=O)O[C@H]2[C@H](OC(=O)[C@H](O)[C@@H](NC(=O)OC(C)(C)C)c2ccccc2)C(C)=C1C3(C)C [PCMI-01]"
assay_result = 4.47

[[record]]
compound = "COC(=O)O[C@H]1C[C@H]2OC[C@@]2(OC(C)=O)[C@H]2[C@H](OC(=O)c3ccccc3)[C@]34OC(=O)O[C@H]3[C@H](OC(=O)[C@H](O)[C@@H](NC(=O)OC(C)(C)C)c3ccccn3)C(C)=C([C@@H](OC)C(=O)[C@]12C)C4(C)C [PCMI-18]"
assay_result = 2.65

[[record]]
compound = "CO[C@H]1C(=O)[C@]2(C)[C@@H](OC)C[C@H]3OC[C@@]3(OC(C)=O)[C@H]2[C@H](OC(=O)c2ccccc2)[C@]23OC(=O)O[C@H]2[C@H](OC(=O)[C@H](O)[C@@H](NC(=O)c2ccccc2)c2ccccc2)C(C)=C1C3(C)C [PCMI-02]"
assay_result = 1.5

[[record]]
compound = "CCSC(=O)O[C@H]1C[C@H]2OC[C@@]2(OC(C)=O)[C@H]2[C@H](OC(=O)c3ccccc3)[C@]34OC(=O)O[C@H]3[C@H](OC(=O)[C@H](O)[C@@H](NC(=O)OC(C)(C)C)c3ccccc3)C(C)=C([C@@H](OC)C(=O)[C@]12C)C4(C)C [PCMI-21]"
assay_result = 2.32


Return reported Papp A→B values for all items listed beneath this line.
1. CO[C@H]1C(=O)[C@]2(C)[C@@H](OC(=O)N(C)C)C[C@H]3OC[C@@]3(OC(C)=O)[C@H]2[C@H](OC(=O)c2ccccc2)[C@]23OC(=O)O[C@H]2[C@H](OC(=O)[C@H](O)[C@@H](NC(=O)OC(C)(C)C)c2ccccn2)C(C)=C1C3(C)C [PCMI-15]
2. CO[C@H]1C(=O)[C@]2(C)[C@@H](OC(=O)N(C)C)C[C@H]3OC[C@@]3(OC(C)=O)[C@H]2[C@H](OC(=O)c2ccccc2)[C@]23OC(=O)O[C@H]2[C@H](OC(=O)[C@H](O)[C@@H](NC(=O)OC(C)(C)C)c2ccccc2)C(C)=C1C3(C)C [PCMI-14]
3. CO[C@H]1C[C@H]2OC[C@@]2(OC(C)=O)[C@H]2[C@H](OC(=O)c3ccccc3)[C@]34OC(=O)O[C@H]3[C@H](OC(=O)[C@H](O)[C@H](CC(C)C)NC(=O)OC(C)(C)C)C(C)=C([C@@H](OC(=O)N(C)C)C(=O)[C@]12C)C4(C)C [PCMI-10]
4. CO[C@H]1C(=O)[C@]2(C)[C@@H](OC)C[C@H]3OC[C@@]3(OC(C)=O)[C@H]2[C@H](OC(=O)c2ccccc2)[C@]23OC(=O)O[C@H]2[C@H](OC(=O)[C@H](O)[C@H](CC(C)C)NC(=O)OC(C)(C)C)C(C)=C1C3(C)C [PCMI-05]
5. COC(=O)O[C@H]1C[C@H]2OC[C@@]2(OC(C)=O)[C@H]2[C@H](OC(=O)c3ccccc3)[C@]34OC(=O)O[C@H]3[C@H](OC(=O)[C@H](O)[C@@H](NC(=O)OC(C)(C)C)c3ccccc3)C(C)=C([C@@H](OC)C(=O)[C@]12C)C4(C)C [PCMI-17]
6. CO[C@H]1C(=O)[C@]2(C)[C@@H](OC(=O)N(C)C)C[C@H]3OC[C@@]3(OC(C)=O)[C@H]2[C@H](OC(=O)c2ccccc2)[C@]23OC(=O)O[C@H]2[C@H](OC(=O)[C@H](O)[C@H](CC(C)C)NC(=O)OC(C)(C)C)C(C)=C1C3(C)C [PCMI-16]
7. CO[C@H]1C(=O)[C@]2(C)[C@@H](OC)C[C@H]3OC[C@@]3(OC(C)=O)[C@H]2[C@H](OC(=O)c2ccccc2)[C@]23OC(=O)O[C@H]2[C@H](OC(=O)[C@H](O)[C@@H](NC(=O)N(C)C)c2ccccc2)C(C)=C1C3(C)C [PCMI-03]

2.14
3.21
1.25
2.59
4.7
1.41
3.45

Return reported Papp A→B values for all items listed beneath this line.
1. CO[C@H]1C[C@H]2OC[C@@]2(OC(C)=O)[C@H]2[C@H](OC(=O)c3ccccc3)[C@]34OC(=O)O[C@H]3[C@H](OC(=O)[C@H](O)[C@@H](NC(=O)N(C)C)c3ccccc3)C(C)=C([C@@H](OC(=O)N(C)C)C(=O)[C@]12C)C4(C)C [PCMI-11]
2. COC(=O)O[C@H]1C[C@H]2OC[C@@]2(OC(C)=O)[C@H]2[C@H](OC(=O)c3ccccc3)[C@]34OC(=O)O[C@H]3[C@H](OC(=O)[C@H](O)[C@H](CC(C)C)NC(=O)OC(C)(C)C)C(C)=C([C@@H](OC)C(=O)[C@]12C)C4(C)C [PCMI-20]

1. 1.24
2. 1.08
